TARGET_SYSTEM: human Neurokinin, NK2 Receptor, TACR2 (gene 6865)
ASSAY_NOTES: NVS_GPCR_hNK2: NovaScreen (NVS) G Protein-Coupled Receptor Assay for human Neurokinin, NK2 Receptor (AID 2283278);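 further: actives reduce bound radioligand signal relative to DMSO baseline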
Records with an inconclusive call do not appear. Active and inactive are the calls of the source. How the source made its calls: active means hit-call score of the fitted dose curve at least 0.9, where 1 is the maximum; inconclusive means response in the unintended direction; inactive means score below 0.9.
Possible outcomes: active, inactive

{"columns": ["COMPOUND", "CLASSIFICATION"],
 "data": [
  ["Cc1cccc(N)c1N", "inactive"],
  ["O=[N+]([O-])c1ccc(Oc2ccc(Cl)cc2Cl)cc1", "inactive"],
  ["CC(C)(C)C(O)(CCc1ccc(Cl)cc1)Cn1cncn1 (stereo unspecified)", "active"],
  ["O=[N+]([O-])C(Br)(CO)CO", "active"],
  ["Oc1ccc2ccc3cccc4ccc1c2c34", "inactive"],
  ["N#CC(Br)Br", "inactive"],
  ["N#CC(Br)(Br)C(N)=O", "inactive"],
  ["O=C(N[C@H](c1ccccc1)[C@@H]1CN2CCC1CC2)c1c(Cl)ccc(C(F)(F)F)c1Cl", "active"],
  ["COP(=S)(OC)SCN1C(=O)c2ccccc2C1=O", "active"],
  ["Cc1ccc(N)c(N)c1", "inactive"],
  ["[Cl-].[Cl-].[Hg+2]", "active"]
]}

---

ASSAY_NOTES: BSK_4H_Eotaxin3: BioMAP Diversity Plus: 4H Assay for Eotaxin 3 Biomarker Activity (AID 2283000)
CONDITION_CONTEXT: primary human endothelial cells (HUVEC); actives raise or lower the signal
Calls of active or inactive are those of the source. Rule for the calls: active = hit-call score of the fitted dose curve at least 0.9, where 1 is the maximum; inactive = score below 0.9.

{"columns": ["COMPOUND", "AC50"],
 "data": [
  ["CC(C)(OOC(C)(C)c1ccccc1)c1ccccc1", "29.9 µM (active)"],
  ["Oc1ccccc1Cl", "inactive"],
  ["N#CC(Br)Br", "inactive"],
  ["Cc1ccc([N+](=O)[O-])cc1", "inactive"],
  ["Nc1ccc([N+](=O)[O-])cc1", "inactive"],
  ["CC(C)(O)c1cnn2c(-c3ccc(F)c(-c4c(F)cccc4C#N)c3)cnc2n1", "33.6 µM (active)"],
  ["CC(C)(C)C(O)(CCc1ccc(Cl)cc1)Cn1cncn1 (stereo not given)", "inactive"],
  ["CCN(CC)CCO", "inactive"],
  ["Cc1cccc(N)c1N", "inactive"],
  ["[Cl-].[Cl-].[Hg+2]", "30.9 µM (active)"],
  ["c1ccc(N=Nc2ccccc2)cc1", "inactive"],
  ["CCC[CH2][Sn]([Cl])([CH2]CCC)[CH2]CCC", "0.148 µM (active)"],
  ["c1ccc2c(c1)oc1ccccc12", "inactive"],
  ["Cn1cc(-c2ccccc2)c(=O)c(-c2cccc(C(F)(F)F)c2)c1", "inactive"],
  ["Cc1ccc(N)c(N)c1", "inactive"],
  ["CNC(=O)Oc1cccc2c1OC(C)(C)C2", "inactive"],
  ["CC(C)N(Cc1ccccc1)C(=O)C(C)(C)C", "inactive"],
  ["C[C@]12C=CC3=C4CCC(=O)C=C4CC[C@H]3[C@@H]1CC[C@@H]2O", "inactive"],
  ["CS(=O)(=O)NC(=O)c1cc(Oc2ccc(C(F)(F)F)cc2Cl)ccc1[N+](=O)[O-]", "inactive"],
  ["CN(C)c1ccc(C(=O)c2ccc(N(C)C)cc2)cc1", "inactive"],
  ["OCCCBr", "inactive"],
  ["O=C(N[C@H](c1ccccc1)[C@@H]1CN2CCC1CC2)c1c(Cl)ccc(C(F)(F)F)c1Cl", "inactive"],
  ["COP(=S)(OC)SCN1C(=O)c2ccccc2C1=O", "inactive"],
  ["N#CC(Br)(Br)C(N)=O", "inactive"],
  ["CCCCC(CC)COC(=O)c1ccc(C(=O)OCC(CC)CCCC)c(C(=O)OCC(CC)CCCC)c1 (stereo not given)", "inactive"],
  ["CCCCCCCCn1sccc1=O", "9.13 µM (active)"],
  ["Nc1ccc(Cc2ccc(N)cc2)cc1", "inactive"],
  ["CCCCCOC(=O)c1ccccc1C(=O)OCCCCC", "20 µM (active)"],
  ["O=[N+]([O-])C(Br)(CO)CO", "27.7 µM (active)"],
  ["CC(O)CCO (stereo not given)", "inactive"]
]}
